assay: NCI Yeast Anticancer Drug Screen. Data for the bub3 strain (AID 167); conditions: S. cerevisiae bub3 mutant strain, at 50.0 µM, hits give high values
Compounds without any hit were thinned out: in the full panel of roughly 79,000, 15% have a hit.
# Lookup of reported growth inhibition keyed by entry
Numeric only. Scale: %

Completed entries (count: 8):
{"columns": ["compound", "endpoint unit", "assay value"],
 "data": [
  ["O=C(NO)c1ccc([N+](=O)[O-])cc1", "%", 17.8],
  ["CCCCSCc1nc2nc(Cl)c(Cl)nc2[nH]1", "%", -44.8],
  ["O=C1CCN2C=CC=CC2=N1", "%", -19],
  ["CCCC(=O)OCc1ccc(Cl)c(Cl)c1", "%", 9.15],
  ["CN(C(=O)c1ccccc1)C1CCCC(=O)CC1 (centres undefined)", "%", -13.6],
  ["CCOC(=O)NN(C(=O)OCC)c1c(NC)n(C)c(=O)n(C)c1=O", "%", 11.1],
  ["CCCC1OCCO1", "%", 5.15],
  ["COC(=O)C1C2C=CC(C2)C1C(=O)OC (centres undefined)", "%", -7.95]
]}

Given COC(=O)CC1C2C=CN(C(=O)OC)N(C(=O)OC)C21 (centres undefined) , respond with its growth inhibition. 5.7

Given COc1ccc2c(c1)C1=C(CC2)C(=O)OC1=O , respond with its growth inhibition. 5.05

Given O=c1[nH]c2c([N+](=O)[O-])cc(Cl)cc2nc1/C=C(\O)c1cccnc1 , respond with its growth inhibition. 4.25

Given Nc1nc(SCC(=O)c2ccc(F)cc2)sc1C(=O)c1ccc(F)cc1 , respond with its growth inhibition. -0.9

---

# Lookup of reported growth inhibition keyed by entry
assay: NCI Yeast Anticancer Drug Screen. Data for the bub3 strain (AID 167); details: S. cerevisiae bub3 mutant strain, at 50.0 µM, hits give high values
About 79,000 compounds went through this panel and 15% of them were active in at least one assay; those are over-represented in the sample as a whole.
Numeric only. Scale: %

Completed entries (count: 3):
{"columns": ["compound", "endpoint unit", "assay value"],
 "data": [
  ["CCOC(=O)Cc1[nH]c(C(=O)OCC)c(CC(=O)OCC)c1C(=O)OCC", "%", 0.1],
  ["COc1nc(C(=O)O)c(Cl)c(OC)c1Cl", "%", -39.6],
  ["O=C(Nc1ccc(Cl)c(Cl)c1)c1ccc(C(=O)Nc2ccc(Cl)c(Cl)c2)cc1", "%", -4.85]
]}

Given O=C(O)C(O)C(O)C(O)C(O)C(=O)O (configuration not stated) , respond with its growth inhibition. -5.1

Given CSc1ncc2c(C#N)c3sc4ccccc4n3c(=O)c2n1 , respond with its growth inhibition. 26.5

---

experiment: NCI Yeast Anticancer Drug Screen. Data for the cln2 rad14 strain (AID 165);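 note: 0% = growth equal to vehicle treated cultures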; settings: S. cerevisiae cln2 rad14 strain, at 50.0 µM
The panel holds about 79,000 compounds, 15% with a hit somewhere; the sample as a whole holds those more often. The source made the active and inactive calls. Rule as the data show it: active = growth inhibition above about 70%; inactive = the rest.
// one of active, inactive, no free text

Some entries whose results are on file:
{"columns": ["compound", "classification"],
 "data": [
  ["CCCCNS(=O)(=O)c1n[nH]c(=O)[nH]c1=O", "inactive"],
  ["Nc1nc2c(ncn2C2OC(COC(=O)c3ccccc3)C(OC(=O)c3ccccc3)C2OC(=O)c2ccccc2)c(=O)[nH]1 (configuration not stated)", "inactive"],
  ["C(=Nc1cnc2ccccc2c1)c1ccc2ccccc2n1", "inactive"]
]}

Status in this test for CCCCCC(=O)N1CCCCC1CC (configuration not stated) ? inactive

Status in this test for CC(=O)OCC(OC(C)=O)C(OC(C)=O)C(C=NN(C(C)=O)S(=O)(=O)c1ccc(/C=C2\NC(=O)NC2=O)cc1)OC(C)=O (configuration not stated) ? inactive

Status in this test for CCOc1ccc(NS(=O)(=O)c2ccc(F)cc2)cc1 ? inactive

Status in this test for O=P(O)(O)c1ccc(-c2ccc(P(=O)(O)O)cc2)cc1 ? inactive
